assay: Plasma protein binding, rapid equilibrium dialysis, human plasma; assay type: in vitro ADME; conditions: human, plasma, pH 7.4, human plasma, read-out: % Bound Average (converted)
outcome_measure: fraction unbound at 4 h, 2 μM

• CC(C)NCC(O)COc1cccc2ccccc12 (centres unmarked) = 0.354

----------
biological target: ER (Homo sapiens, UniProt P03372); construct: MCF7 (PR, ER); endogenous in cells; test: 3H-ligand displacement assay on cells, ER (MCF7)
Sequence (P03372 whole entry): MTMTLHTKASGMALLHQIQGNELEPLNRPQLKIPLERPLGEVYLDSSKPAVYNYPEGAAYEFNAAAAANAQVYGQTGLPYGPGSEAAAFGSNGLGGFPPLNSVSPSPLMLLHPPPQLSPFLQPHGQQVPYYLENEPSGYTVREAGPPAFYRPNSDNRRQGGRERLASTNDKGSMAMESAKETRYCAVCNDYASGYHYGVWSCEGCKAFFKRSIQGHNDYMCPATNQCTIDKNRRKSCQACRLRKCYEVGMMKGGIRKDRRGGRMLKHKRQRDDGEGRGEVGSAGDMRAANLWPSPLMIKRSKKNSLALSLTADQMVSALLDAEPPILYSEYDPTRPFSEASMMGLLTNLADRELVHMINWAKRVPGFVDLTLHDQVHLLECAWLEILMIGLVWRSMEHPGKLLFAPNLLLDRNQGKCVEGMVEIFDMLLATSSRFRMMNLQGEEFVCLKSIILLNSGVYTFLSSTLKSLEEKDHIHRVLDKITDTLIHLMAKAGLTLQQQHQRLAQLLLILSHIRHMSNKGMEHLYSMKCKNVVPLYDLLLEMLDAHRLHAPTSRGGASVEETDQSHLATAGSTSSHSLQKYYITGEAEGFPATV
pKd: −log10 of the molar value.
outcome_measure: pKd

• COc1cccc2c1-c1ccc3c(c1C(Cc1ccc(F)cc1)O2)C(C)=CC(C)(C)N3 (racemic) = 4.72

----------
Molecular target: PR (Homo sapiens, UniProt P06401)
Construct: MCF7 (PR, ER); endogenous in cells
Sequence (P06401 1-933): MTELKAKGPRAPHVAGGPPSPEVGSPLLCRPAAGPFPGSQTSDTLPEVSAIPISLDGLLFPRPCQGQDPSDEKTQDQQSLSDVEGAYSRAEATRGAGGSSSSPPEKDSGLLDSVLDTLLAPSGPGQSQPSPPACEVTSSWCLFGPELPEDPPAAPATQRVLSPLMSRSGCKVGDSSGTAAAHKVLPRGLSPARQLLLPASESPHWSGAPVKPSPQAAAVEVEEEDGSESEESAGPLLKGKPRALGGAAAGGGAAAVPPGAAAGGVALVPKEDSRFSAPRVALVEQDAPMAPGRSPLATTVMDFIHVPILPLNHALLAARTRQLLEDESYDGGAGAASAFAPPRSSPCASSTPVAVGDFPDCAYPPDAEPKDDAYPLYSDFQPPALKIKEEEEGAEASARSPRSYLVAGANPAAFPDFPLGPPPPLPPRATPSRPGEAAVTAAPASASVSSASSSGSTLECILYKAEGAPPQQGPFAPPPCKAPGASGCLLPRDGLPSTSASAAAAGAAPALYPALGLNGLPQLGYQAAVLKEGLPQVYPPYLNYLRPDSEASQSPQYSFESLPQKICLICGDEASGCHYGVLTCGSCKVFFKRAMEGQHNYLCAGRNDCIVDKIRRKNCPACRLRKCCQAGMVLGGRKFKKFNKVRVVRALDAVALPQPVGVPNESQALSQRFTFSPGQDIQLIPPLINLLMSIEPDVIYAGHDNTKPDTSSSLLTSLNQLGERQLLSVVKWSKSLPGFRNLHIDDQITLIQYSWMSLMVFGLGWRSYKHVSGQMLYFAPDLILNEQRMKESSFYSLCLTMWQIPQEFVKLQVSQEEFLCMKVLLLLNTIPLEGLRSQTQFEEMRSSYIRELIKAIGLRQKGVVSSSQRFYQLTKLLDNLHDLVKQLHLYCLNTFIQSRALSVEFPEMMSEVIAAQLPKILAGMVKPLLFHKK
Assay: 3H-ligand displacement assay on cells, PR (MCF7)
outcome_measure: Kd

- COc1cccc2c1-c1ccc3c(c1C(Cc1ccc(F)cc1)O2)C(C)=CC(C)(C)N3 (racemic) [YJH08]: 555 nM

----------
assay: Plasma protein binding, rapid equilibrium dialysis, human plasma; type: in vitro ADME; details: human, plasma, pH 7.4, human plasma, duplicate, read-out: % Bound (converted)
outcome_measure: fraction unbound at 4 h, 2 μM

• CC(C)NCC(O)COc1cccc2ccccc12 (centres unmarked) [Propranolol] = 0.354

----------
Reported values of Ki for individual entries
Biological target: GR (Homo sapiens)
Construct: evaluated using ^3H-ligand displacement assays on cells; endogenous in cells; host or cells: DU145
Sequence (P04150 1-777): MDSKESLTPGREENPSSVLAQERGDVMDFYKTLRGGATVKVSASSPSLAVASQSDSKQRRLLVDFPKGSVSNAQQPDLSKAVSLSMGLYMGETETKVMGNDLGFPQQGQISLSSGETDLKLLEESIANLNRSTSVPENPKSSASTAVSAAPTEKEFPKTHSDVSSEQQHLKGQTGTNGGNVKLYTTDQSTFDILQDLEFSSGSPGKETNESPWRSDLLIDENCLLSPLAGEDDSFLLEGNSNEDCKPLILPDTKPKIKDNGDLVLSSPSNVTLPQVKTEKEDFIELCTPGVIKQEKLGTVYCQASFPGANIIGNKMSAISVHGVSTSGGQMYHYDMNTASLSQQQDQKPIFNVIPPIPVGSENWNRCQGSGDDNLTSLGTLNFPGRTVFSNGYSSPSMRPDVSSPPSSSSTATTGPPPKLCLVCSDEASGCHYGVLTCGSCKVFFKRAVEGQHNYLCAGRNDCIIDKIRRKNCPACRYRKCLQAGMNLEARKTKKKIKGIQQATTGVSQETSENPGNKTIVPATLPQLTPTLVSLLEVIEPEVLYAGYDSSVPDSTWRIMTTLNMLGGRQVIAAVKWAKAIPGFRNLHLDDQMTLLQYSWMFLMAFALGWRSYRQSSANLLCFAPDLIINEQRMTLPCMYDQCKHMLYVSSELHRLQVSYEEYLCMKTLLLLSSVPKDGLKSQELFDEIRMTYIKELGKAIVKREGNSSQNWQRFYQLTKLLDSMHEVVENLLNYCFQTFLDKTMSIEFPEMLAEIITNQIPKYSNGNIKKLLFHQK
Test: 3H-dexamethasone displacement assay on cells (Ki)
Format: binding
Conditions: DU145 cells; read-out: affinity (3H-dexamethasone displacement curves)
outcome_measure: Ki

- COc1cccc2c1-c1ccc3c(c1[C@H](Cc1ccc(F)cc1)O2)C(C)=CC(C)(C)N3 [(S)-YJH08]: < 5 nM
- COc1cccc2c1-c1ccc3c(c1[C@@H](Cc1ccc(F)cc1)O2)C(C)=CC(C)(C)N3 [(R)-YJH08]: < 5 nM

----------
molecular target: GR (Homo sapiens); construct: evaluated using ^3H-ligand displacement assays on cells; endogenous in cells; host or cells: DU145; assay: 3H-ligand displacement assay on cells, GR (DU145); type: binding; conditions: DU145 cells; 3H-dexamethasone; Reference = dexamethasone; read-out: Kd GR
outcome_measure: Kd

* COc1cccc2c1-c1ccc3c(c1C(Cc1ccc(F)cc1)O2)C(C)=CC(C)(C)N3 (racemic) | 0.401 nM

----------
target: GR (Homo sapiens, UniProt P04150); construct: evaluated using ^3H-ligand displacement assays on cells; endogenous in cells; host or cells: DU145; test: 3H-ligand displacement assay on cells, GR (DU145); assay type: binding; settings: read-out: Kd for GR
outcome_measure: Kd

• COc1cccc2c1-c1ccc3c(c1C(Cc1ccc(F)cc1)O2)C(C)=CC(C)(C)N3 (racemic) [YJH08] = ~0.4 nM
